Where these numbers come from: ChEMBL document CHEMBL1155968

test system: Mus musculus; assay: Neurotoxicity in ip dosed albino mouse assessed as minimal motor impairment after 0.5 hrs by rotarod test; type: toxicity, organism-based; conditions: in vivo
reportedProperty: Activity

# compound, reported
records = [
    ("CCc1nc2ccccc2c(=O)n1NC(=O)Nc1cccc(C)c1", "Not Active"),
    ("CCc1ccc(NC(=O)Nn2c(-c3ccccc3)nc3ccccc3c2=O)cc1", "Not Active"),
    ("Cc1ccccc1NC(=O)Nn1c(-c2ccccc2)nc2ccccc2c1=O", "Not Active"),
    ("CCc1nc2ccccc2c(=O)n1NC(=O)Nc1ccc(I)cc1", "Not Active"),
    ("CCc1nc2ccccc2c(=O)n1NC(=O)Nc1ccccc1C", "Not Active"),
    ("CCc1nc2ccccc2c(=O)n1NC(=O)Nc1ccc(Cl)cc1", "Not Active"),
    ("CCc1ccc(NC(=O)Nn2c(CC)nc3ccccc3c2=O)cc1", "Not Active"),
    ("O=C(Nc1ccc(F)cc1)Nn1c(-c2ccccc2)nc2ccccc2c1=O", "Not Active"),
    ("Cc1ccc(NC(=O)Nn2c(-c3ccccc3)nc3ccccc3c2=O)cc1", "300 mg/kg"),
    ("CCc1nc2ccccc2c(=O)n1NC(=O)Nc1ccc([N+](=O)[O-])cc1", "100 mg/kg"),
    ("CCc1nc2ccccc2c(=O)n1NC(=O)Nc1ccc(Br)cc1", "300 mg/kg"),
    ("CCc1nc2ccccc2c(=O)n1NC(=O)Nc1ccc(C)cc1", "300 mg/kg"),
    ("NC(=O)N1c2ccccc2C=Cc2ccccc21 [CARBAMAZEPINE]", "Not Active"),
    ("Cc1cccc(NC(=O)Nn2c(-c3ccccc3)nc3ccccc3c2=O)c1", "Not Active"),
    ("O=C(Nc1ccccc1)Nn1c(-c2ccccc2)nc2ccccc2c1=O", "300 mg/kg"),
    ("CCc1nc2ccccc2c(=O)n1NC(=O)Nc1ccc(F)cc1", "Not Active"),
    ("COc1ccc(NC(=O)Nn2c(-c3ccccc3)nc3ccccc3c2=O)cc1", "300 mg/kg"),
    ("CCC1(c2ccccc2)C(=O)NC(=O)NC1=O", "Not Active"),
    ("O=C(Nc1ccc([N+](=O)[O-])cc1)Nn1c(-c2ccccc2)nc2ccccc2c1=O", "300 mg/kg"),
]
